target: Cathepsin B (Homo sapiens, UniProt P07858)
quantityMeasured: IC50 (µM)

* CCCC[C@H](NC(=O)O[C@H](Cc1nnc(-c2ccc(F)cc2)o1)C(C)(C)C)C(=O)C(=O)N[C@H](C)c1ccccc1 | 9.8
* CCCC[C@H](NC(=O)O[C@H](Cc1nnc(-c2ccccc2)o1)C(C)(C)C)C(=O)C(=O)N[C@H](C)c1ccccc1 | 12

I = CCCC[C@H](NC(=O)O[C@H](CN1CCN(c2ccc(C(F)(F)F)cc2)C1=O)C(C)(C)C)C(=O)C(=O)Nc1ccn[nH]1
II = CCCC[C@H](NC(=O)OC(Cc1nnc(-c2ccc(F)cc2)o1)C(C)(C)C)C(=O)C(=O)N[C@H]1CCCNC1=O (stereo partly specified)
III = CCCC[C@H](NC(=O)O[C@H](Cc1nnc(-c2ccccc2)o1)C(C)C)C(=O)C(=O)N[C@H](C)c1ccccc1
IV = CCCC[C@H](NC(=O)O[C@H](Cc1nnc(-c2ccc(F)cc2)o1)C(C)(C)C)C(=O)C(=O)NCc1cccnc1
Q) Please rank these compounds by IC50 in descending order. Hello, could you send the labels back in the order asked? Thank you.
A) I, III, IV, II
